- TARGET: Rhesus monkey Claudine18.2 (Rhesus monkey) (UniProt F6YQY3)
- METHOD: FACS on CHOK1-rh18.2 cells
READOUT NAME: FACS MFI
Could you keep your reply to the number by itself?

Below: 2 binders and their reported FACS MFI.
BINDER: Ab06 (antibody, V domains shown) VH: EVQLVASGGGLVKPGGSLKLSCAASGITFRSYAMSWVRQTPEKRLEWVATITDGGSYIFYPDNVKGRFTISGDHAKNNLYLQMSHLKSEDTALYFCVRLYYGNSFAYWGQGTLVTVSA VL: DIVMTQSPSSLTVTAGEKVTLNCKSSQSLFNSGNQKNYLTWYQQKPGQPPKLLIYWASTRESGVPDRFTGSGSGTDFTLTFSSVQAEDLAVYYCQNAYIYPFTFGSGTKLEIK
READOUT NAME: FACS MFI
RESULT: 14000
--
BINDER: Ab15 (antibody, V domains shown) VH: EVMLVESGGDLVKPGGSLKLSCAASGFTFSTYTMSWVRQTPEKRLEWVATIVGGGGYTYYLDSVKGRFTISRDNAKNTLYLQMISLRSEDTALYYCARMGLTQRNALDYWGQGTSITVSS VL: DIVMTQSPSSLSVSEGEKVTLNCKSSQSLFNSGNQKNYLAWYQQKPGQPPKLLIYGASTRESGVPDRFTGSGFGTDFTLTISSVQAEDLAVYYCQNDHTYPLTFGAGAKLELK
READOUT NAME: FACS MFI
RESULT: 6320

Now for another entry.
Fill in: FACS MFI of Ab05 (antibody, V domains shown) VH: DVKLVESGEDLVKPGGSLKLSCAASGFTFSNYAMSWVRQTPEKRLEWVAYVSSGGDYIYYADTVKGRFIISRDNARNTLYLQMNSLRSEDTAMYYCARVYFGNSLDYWGQGTTLTVSS VL: DIVMTQSPSSLTVTAGEKVTLSCKSSQSLLNGGNQKNYLTWYQQRPGQPPKLLIYWASTRESGVPDRFTGSGSGTDFTLIISSVQAEDLAVYYCQNDYYYPWTFGGGTKLEIK is ___ 9850
